For reference, IC50 measured on human TYRO3 (Homo sapiens):

COC1CCN(C(=O)c2ccc(-c3n[nH]c4ncc(-c5ccc6c(c5)CC[C@@H](N5CCCC5)CC6)cc34)cc2Cl)CC1 [Example 66]	< 100 nM
COc1cc(-c2n[nH]c3ncc(-c4ccc5c(c4)CCC(C)(N4CCC[C@H]4C)CC5)cc23)ccc1S(N)(=O)=O (stereo partly drawn) [Example 87]	100 to 1000 nM

Here is the next item to consider.
Entry under test: CC1(N2CCC[C@@H]2CO)CCc2ccc(-c3cnc4[nH]nc(-c5ccc(S(=O)(=O)C6CC6)cc5)c4c3)cc2CC1 (stereo partly drawn) [Example 3] . Its IC50 was < 100 nM

----------
Target: Axl (Homo sapiens, UniProt P30530)
Assay: HTRF KinEASE-TK biochemical potency assay, AXL
Design: purchased Invitrogen
Settings: 5 nM AXL, 700 μM ATP, 800 nM TK Substrate-biotin
pIC50: −log10 of the molar value.
Assignment: determine reported pIC50 for the given compounds.

COC1CCN(C(=O)c2ccc(-c3n[nH]c4ncc(-c5ccc6c(c5)CCC(C)(N5CCC[C@H]5C)CC6)cc34)cc2Cl)CC1 (stereo partly drawn) [Example 67]	> 7.00
C[C@@H]1CCCN1C1(C)CCc2ccc(-c3cnc4[nH]nc(-c5cnc(C(C)(C)O)c(Cl)c5)c4c3)cc2CC1 (stereo partly drawn) [Example 98]	> 7.00
C[C@@H]1CCCN1C1(C)CCc2ccc(-c3cnc4[nH]nc(-c5ccc(C(=O)N[C@H]6CCOC6)cc5)c4c3)cc2CC1 (stereo partly drawn) [Example 117]	> 7.00
C[C@@H]1CCCN1[C@@H]1CCc2cc(-c3cnc4[nH]nc(-c5ccc(S(=O)(=O)C6CC6)cc5)c4c3)cnc2CC1 [Example 101]	> 7.00
C[C@@H]1CCCN1C1(C)CCc2ccc(-c3cnc4[nH]nc(-c5ccc(C(N)=O)c(F)c5)c4c3)cc2CC1 (stereo partly drawn) [Example 52]	> 7.00

Look up pIC50 for the entries below, preserving their order.
1. Cc1cc(-c2n[nH]c3ncc(-c4ccc5c(c4)CC[C@@H](N4CCCC4)CC5)cc23)cc(C)c1C(N)=O [Example 49]
2. C[C@@H]1CCCN1C1(C)CCc2ccc(-c3cnc4[nH]nc(-c5ccc(S(=O)(=O)N6CCC6)cc5)c4c3)cc2CC1 (stereo partly drawn) [Example 104]

> 7.00
> 7.00

----------
Target: human TYRO3 (Homo sapiens)
Sequence (Q06418 41-890): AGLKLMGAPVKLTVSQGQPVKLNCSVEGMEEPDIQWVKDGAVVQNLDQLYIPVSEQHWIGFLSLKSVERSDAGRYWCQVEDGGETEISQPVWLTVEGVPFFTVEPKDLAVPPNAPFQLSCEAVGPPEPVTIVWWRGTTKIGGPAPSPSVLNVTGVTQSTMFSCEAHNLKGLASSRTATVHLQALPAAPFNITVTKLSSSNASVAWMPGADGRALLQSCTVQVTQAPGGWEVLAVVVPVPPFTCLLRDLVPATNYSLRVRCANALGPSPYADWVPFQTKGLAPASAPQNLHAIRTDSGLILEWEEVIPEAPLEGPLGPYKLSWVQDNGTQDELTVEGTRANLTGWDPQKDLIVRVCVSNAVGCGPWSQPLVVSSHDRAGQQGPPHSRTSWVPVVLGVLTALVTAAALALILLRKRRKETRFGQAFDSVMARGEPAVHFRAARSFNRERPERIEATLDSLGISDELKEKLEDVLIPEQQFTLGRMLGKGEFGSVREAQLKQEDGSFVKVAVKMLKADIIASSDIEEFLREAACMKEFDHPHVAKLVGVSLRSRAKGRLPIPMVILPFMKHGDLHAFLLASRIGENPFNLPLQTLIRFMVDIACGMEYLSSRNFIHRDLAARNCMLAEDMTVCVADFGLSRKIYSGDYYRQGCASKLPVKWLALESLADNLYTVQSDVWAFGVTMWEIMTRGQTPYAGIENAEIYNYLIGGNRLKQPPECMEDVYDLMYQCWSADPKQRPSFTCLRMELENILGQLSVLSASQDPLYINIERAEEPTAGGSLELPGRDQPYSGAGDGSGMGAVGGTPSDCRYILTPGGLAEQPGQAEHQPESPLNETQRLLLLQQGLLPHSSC
pIC50: −log10 of the molar value.
Field: pIC50. Provide a value for each of the compounds that follow.

Solved cases (2 shown):
CS(=O)(=O)c1ccc(-c2n[nH]c3ncc(-c4ccc5c(c4)CCN(C4CCCC4)CC5)cc23)cc1F	6.00 to 7.00
NS(=O)(=O)c1ccc(-c2n[nH]c3ncc(-c4ccc5c(c4)CC[C@@H](N4CCCC4)CC5)cc23)cc1Cl	> 7.00

Please report pIC50 for every entry that follows.
1. CC(C)(O)c1ccc(-c2n[nH]c3ncc(-c4ccc5c(c4)CCC(N4CCC[C@@H]4CO)CC5)cc23)cc1Cl (stereo partly shown)
2. Cc1cc(-c2n[nH]c3ncc(-c4ccc5c(c4)CC[C@@H](N4CCCC4)CC5)cc23)cc(F)c1C(N)=O
3. C[C@@H]1CCCN1C1CCc2ccc(-c3cnc4[nH]nc(-c5ccc(C6(O)CCOC6)c(Cl)c5)c4c3)cc2CC1 (stereo partly shown)
4. CCC1(N2CCC[C@@H]2CO)CCc2ccc(-c3cnc4[nH]nc(-c5ccc(C(N)=O)c(Cl)c5)c4c3)cc2CC1 (stereo partly shown)

1: 6.00 to 7.00; 2: > 7.00; 3: 6.00 to 7.00; 4: > 7.00

For this compound ( O=S(=O)(c1ccc(-c2n[nH]c3ncc(-c4ccc5c(c4)CCN(C4CCOCC4)CC5)cc23)cc1)C1CC1 ), measured pIC50 is 6.00 to 7.00

----------
Molecular target: human MER (Homo sapiens, UniProt Q12866)
Construct: purchased Invitrogen
Sequence (Q12866 21-999): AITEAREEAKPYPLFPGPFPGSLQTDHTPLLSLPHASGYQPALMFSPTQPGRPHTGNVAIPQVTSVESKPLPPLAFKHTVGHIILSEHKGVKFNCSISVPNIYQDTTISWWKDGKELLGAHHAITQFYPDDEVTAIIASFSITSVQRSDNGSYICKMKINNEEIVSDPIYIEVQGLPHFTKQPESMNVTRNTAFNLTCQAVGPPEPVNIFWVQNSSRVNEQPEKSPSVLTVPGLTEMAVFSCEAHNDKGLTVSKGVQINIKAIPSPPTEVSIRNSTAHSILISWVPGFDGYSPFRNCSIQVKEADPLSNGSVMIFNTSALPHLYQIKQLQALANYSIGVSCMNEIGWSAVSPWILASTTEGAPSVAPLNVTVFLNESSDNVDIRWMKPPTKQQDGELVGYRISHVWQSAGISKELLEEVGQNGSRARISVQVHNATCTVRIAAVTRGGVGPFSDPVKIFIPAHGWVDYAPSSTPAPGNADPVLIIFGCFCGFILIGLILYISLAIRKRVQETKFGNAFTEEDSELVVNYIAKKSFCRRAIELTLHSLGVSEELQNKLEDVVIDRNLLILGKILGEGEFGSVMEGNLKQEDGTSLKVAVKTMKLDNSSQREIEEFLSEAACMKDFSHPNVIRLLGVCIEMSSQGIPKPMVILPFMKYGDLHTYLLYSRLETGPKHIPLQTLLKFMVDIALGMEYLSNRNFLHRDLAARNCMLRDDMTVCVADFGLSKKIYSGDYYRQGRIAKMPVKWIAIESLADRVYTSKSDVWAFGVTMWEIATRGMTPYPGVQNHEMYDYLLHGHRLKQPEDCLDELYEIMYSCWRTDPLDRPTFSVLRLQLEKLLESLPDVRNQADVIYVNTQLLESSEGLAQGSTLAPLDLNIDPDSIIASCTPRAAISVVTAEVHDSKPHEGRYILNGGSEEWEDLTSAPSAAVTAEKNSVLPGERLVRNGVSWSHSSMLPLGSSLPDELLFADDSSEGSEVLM
Assay: HTRF KinEASE-TK biochemical potency assay, MER
Settings: 1 nM MER, 700 μM ATP, 800 nM TK Substrate-biotin
pIC50: −log10 of the molar value.
Kindly supply the reported pIC50 values for the records listed here.

C[C@@H]1CCCN1C1(C)CCc2ccc(-c3cnc4[nH]nc(-c5ccc(C(=O)NC6CCOCC6)cc5)c4c3)cc2CC1 (stereo partly drawn)	< 6.00
C[C@@H]1CCCN1[C@H]1CCc2cc(-c3cnc4[nH]nc(-c5ccc(S(=O)(=O)C6CC6)cc5)c4c3)cnc2CC1	< 6.00
CC(C)(O)c1ccc(-c2n[nH]c3ncc(-c4ccc5c(n4)CCC(N4CCCC4)CC5)cc23)cc1Cl (stereo not drawn)	6.00 to 7.00
COCCOc1ccc(-c2n[nH]c3ncc(-c4ccc5c(c4)CC[C@@H](N4C6COCC4C6)CC5)cc23)cc1	< 6.00
CC1(N2CCOCC2)CCc2ccc(-c3cnc4[nH]nc(-c5ccc(S(=O)(=O)C6CC6)cc5)c4c3)cc2CC1 (stereo not drawn)	< 6.00

Could you report pIC50 for every entry in the following list?
1. CC(C)(O)c1ccc(-c2n[nH]c3ncc(-c4ccc5c(c4)CCC(N4CCC[C@@H]4CO)CC5)cc23)cc1Cl (stereo partly drawn)
2. O=C1OCCN1c1ccc(-c2n[nH]c3ncc(-c4ccc5c(c4)CC[C@@H](N4C6COCC4C6)CC5)cc23)cc1

["6.00 to 7.00", "< 6.00"]

----------
Target: UniProtKB P30530
Sequence (P30530 26-894): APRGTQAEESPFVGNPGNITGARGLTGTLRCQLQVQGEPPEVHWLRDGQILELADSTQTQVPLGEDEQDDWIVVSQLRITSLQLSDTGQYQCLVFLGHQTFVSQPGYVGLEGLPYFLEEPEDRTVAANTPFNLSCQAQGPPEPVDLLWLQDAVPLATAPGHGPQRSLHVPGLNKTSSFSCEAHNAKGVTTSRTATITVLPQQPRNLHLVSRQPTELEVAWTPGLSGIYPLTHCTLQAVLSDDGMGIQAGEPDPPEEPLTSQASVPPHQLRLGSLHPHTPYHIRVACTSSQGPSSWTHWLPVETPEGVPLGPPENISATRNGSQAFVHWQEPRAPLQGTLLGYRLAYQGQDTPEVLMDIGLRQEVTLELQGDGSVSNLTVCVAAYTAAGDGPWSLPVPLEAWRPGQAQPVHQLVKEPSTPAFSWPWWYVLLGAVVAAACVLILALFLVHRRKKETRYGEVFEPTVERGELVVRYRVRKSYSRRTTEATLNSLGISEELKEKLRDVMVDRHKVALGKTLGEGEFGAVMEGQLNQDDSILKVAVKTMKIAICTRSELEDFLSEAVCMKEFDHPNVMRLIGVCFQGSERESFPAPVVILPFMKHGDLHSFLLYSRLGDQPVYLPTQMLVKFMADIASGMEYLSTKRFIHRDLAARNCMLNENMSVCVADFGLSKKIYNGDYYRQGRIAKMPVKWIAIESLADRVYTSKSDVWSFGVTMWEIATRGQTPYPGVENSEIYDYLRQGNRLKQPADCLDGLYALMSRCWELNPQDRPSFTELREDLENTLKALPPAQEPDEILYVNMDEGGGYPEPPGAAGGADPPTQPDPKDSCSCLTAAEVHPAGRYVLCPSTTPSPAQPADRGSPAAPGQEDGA
Test: HTRF KinEASE-TK biochemical potency assay, AXL
Parameters: purchased Invitrogen
Conditions: 5 nM AXL, 700 μM ATP, 800 nM TK Substrate-biotin
pIC50: −log10 of the molar value.
Would you mind telling me the reported pIC50 of each entry?

As a guide, the following entries are already answered.
Cc1cc(-c2n[nH]c3ncc(-c4ccc5c(c4)CC[C@@H](N4CCCC4)CC5)cc23)cc(F)c1C(N)=O	> 7.00
C[C@@H]1CCCN1C1CCc2ccc(-c3cnc4[nH]nc(-c5ccc(S(N)(=O)=O)c(Cl)c5)c4c3)cc2CC1 (stereo partly shown)	> 7.00

Each compound below has a recorded value; state its pIC50.
1. COCCS(=O)(=O)c1ccc(-c2n[nH]c3ncc(-c4ccc5c(c4)CCC(C)(N4CCC[C@H]4C)CC5)cc23)cc1 (stereo partly shown)
2. Cc1cc(-c2n[nH]c3ncc(-c4ccc5c(c4)CC[C@@H](N4CCCC4)CC5)cc23)cc(Cl)c1C(=O)N1CCNCC1
3. CC(C)(O)c1ccc(-c2n[nH]c3ncc(-c4ccc5c(c4)CCN(C4CCCC4)CC5)cc23)c(F)c1
4. O=C([C@H]1CCCN1)N1CCc2ccc(-c3cnc4[nH]nc(-c5ccc(S(=O)(=O)C6CC6)cc5)c4c3)cc2CC1

1. > 7.00
2. > 7.00
3. > 7.00
4. > 7.00

So, C[C@@H]1CCCN1C1(C)CCc2ccc(-c3cnc4[nH]nc(-c5ccc(S(=O)(=O)C6CCC6)cc5)c4c3)cc2CC1 (stereo partly shown) ? Its pIC50 was > 7.00
